Molecular target: Cytochrome P450 2D6 (Homo sapiens, UniProt P10635)
Sequence (P10635 whole entry): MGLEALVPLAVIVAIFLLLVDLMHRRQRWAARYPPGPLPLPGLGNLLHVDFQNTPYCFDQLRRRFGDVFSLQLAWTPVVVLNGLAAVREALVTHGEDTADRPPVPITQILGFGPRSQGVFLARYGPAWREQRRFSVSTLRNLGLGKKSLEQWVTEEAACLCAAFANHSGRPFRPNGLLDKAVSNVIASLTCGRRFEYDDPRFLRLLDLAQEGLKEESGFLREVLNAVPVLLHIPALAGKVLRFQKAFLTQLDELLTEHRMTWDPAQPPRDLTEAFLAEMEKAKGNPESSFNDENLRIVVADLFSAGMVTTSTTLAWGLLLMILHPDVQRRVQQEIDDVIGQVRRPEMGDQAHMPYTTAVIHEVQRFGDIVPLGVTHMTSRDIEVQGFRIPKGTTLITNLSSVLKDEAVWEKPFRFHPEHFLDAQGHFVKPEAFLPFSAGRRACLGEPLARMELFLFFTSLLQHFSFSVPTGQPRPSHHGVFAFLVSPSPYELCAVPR
recordedMetric: IC50 (µM)

P: CC(C)c1csc(NC(=O)C2c3ccccc3Oc3ccccc32)n1
Q: N#Cc1csc(NC(=O)C2c3ccccc3Oc3ccccc32)n1
Query: Dear colleague, could you let me know whether P or Q has the lower recorded IC50? Thanks. Indicate which entry you chose by stating its label.
Result: Q
(Q: 10.3 µM, P: 26.5 µM)
